Reference source: patent US11312706B2

# TGT: human LPA1 (Homo sapiens, UniProt Q92633)
# Sequence (Q92633 whole entry): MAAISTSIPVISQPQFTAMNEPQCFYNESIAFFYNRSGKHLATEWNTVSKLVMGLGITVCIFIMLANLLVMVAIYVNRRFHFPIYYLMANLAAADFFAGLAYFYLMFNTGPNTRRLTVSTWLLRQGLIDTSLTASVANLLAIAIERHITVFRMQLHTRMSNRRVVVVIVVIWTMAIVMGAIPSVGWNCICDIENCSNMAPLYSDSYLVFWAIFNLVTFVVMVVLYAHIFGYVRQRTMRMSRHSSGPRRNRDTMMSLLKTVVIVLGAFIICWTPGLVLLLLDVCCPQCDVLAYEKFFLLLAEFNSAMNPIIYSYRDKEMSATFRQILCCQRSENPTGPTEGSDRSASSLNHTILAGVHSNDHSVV
# MEASUREMENT NOTES: LPA1 functional antagonist assay (LPA-induced calcium flux)
# MEASUREMENT CONDITIONS: CHO cells overexpressing human LPA1, 10 nM LPA, read-out: hLPA1 IC50
Criterion: IC50 strictly under 50 nM. Met: MET. Not met: NOT MET.

Example cases with answers are listed next.
- INPUT SMILES: "Cc1nc(-c2cnn(C)c2CNc2nccc(OCC(F)F)n2)ncc1O[C@H]1CCC[C@H](C(=O)O)C1"
  TGT: "human LPA1 (Homo sapiens, UniProt Q92633)"
  GROUP: "MET"
- INPUT SMILES: "CCNc1nc(NCc2c(-c3ncc(O[C@H]4CCC[C@H](C(=O)O)C4)c(C)n3)cnn2C)ncc1F"
  TGT: "human LPA1 (Homo sapiens, UniProt Q92633)"
  GROUP: "MET"
- INPUT SMILES: "Cc1nc(-c2cnn(C)c2CNc2nccc(OC3CC3)n2)ncc1O[C@H]1CCC[C@H](C(=O)O)C1"
  TGT: "human LPA1 (Homo sapiens, UniProt Q92633)"
  GROUP: "MET"

Take the molecule Cc1nc(-c2cnn(C)c2CNc2nccc(-c3ccccc3)n2)ccc1O[C@H]1CCC[C@H](C(=O)O)C1 and say whether its IC50 is less than 50 nM. NOT MET

Report whether reported IC50 is lower than 50 nM (strictly) for Cc1nc(-c2cnn(C)c2CNc2ncnc(C3CCCC3)n2)ncc1O[C@H]1CCC[C@H](C(=O)O)C1 NOT MET

Bench note: check whether Cc1nc(-c2cnn(C)c2CNc2nccc(OCCCF)n2)ncc1O[C@H]1CCC[C@H](C(=O)O)C1 shows IC50 below 50 nM MET
